system: SKOV-3 (human ovarian carcinoma); experiment: MTT assay, SKOV-3; format: cell-based; details: IC50 HDF / IC50 SKOV-3
PROPERTY: Selectivity index (SI), SKOV-3
// keep it numeric: no unit symbol after the value

// known answers, use as guide
C=C(C)[C@@H]1CC[C@]2(CO)CC[C@]3(C)[C@H](CC[C@@H]4[C@@]5(C)CC[C@H](O)C(C)(C)[C@@H]5CC[C@]43C)[C@@H]12; 2.27
CC1(C)CC[C@]2(CO)CC[C@]3(C)C(=CC[C@@H]4[C@@]5(C)CC[C@H](O)C(C)(C)[C@@H]5CC[C@]43C)[C@@H]2C1; 1.53
C=C(C)[C@@H]1CC[C@]2(C(=O)O)CC[C@]3(C)[C@H](CC[C@@H]4[C@@]5(C)CC[C@H](O)C(C)(C)[C@@H]5CC[C@]43C)[C@@H]12; 2.09
C=C(C)[C@@H]1CC[C@]2(C)CC[C@]3(C)[C@H](CC[C@@H]4[C@@]5(C)CC[C@H](O)C(C)(C)[C@@H]5CC[C@]43C)[C@@H]12; 1.99
CC(=O)OCC12CCC(C)(C)CC1C1=CCC3C4(C)CCC(OC(C)=O)C(C)(C)C4CCC3(C)C1(C)CC2 (stereo not shown); 2.08

Query `CC(=O)O[C@H]1CC[C@]2(C)[C@H]3CC=C4[C@@H]5CC(C)(C)CC[C@]5(C(=O)O)CC[C@@]4(C)[C@]3(C)CC[C@H]2C1(C)C` yields Selectivity index (SI), SKOV-3 of 2.11

// field: Selectivity index (SI), SKOV-3; key: `CC1(C)CC[C@]23CC[C@]4(C)[C@H](CC[C@@H]5[C@@]6(C)CC[C@H](O)C(C)(C)[C@@H]6CC[C@]54C)[C@H]2[C@H]1OC3` ; value = 2.30

Data origin, for the record: paper PMC12196235
